Recorded values, source patent US20170314054A1.

- Target: T1, microbial transglutaminase from Streptomyces mobaraensis (MTG) (Streptomyces mobaraensis, UniProt P81453 77-407)
- T1 sequence (looked up): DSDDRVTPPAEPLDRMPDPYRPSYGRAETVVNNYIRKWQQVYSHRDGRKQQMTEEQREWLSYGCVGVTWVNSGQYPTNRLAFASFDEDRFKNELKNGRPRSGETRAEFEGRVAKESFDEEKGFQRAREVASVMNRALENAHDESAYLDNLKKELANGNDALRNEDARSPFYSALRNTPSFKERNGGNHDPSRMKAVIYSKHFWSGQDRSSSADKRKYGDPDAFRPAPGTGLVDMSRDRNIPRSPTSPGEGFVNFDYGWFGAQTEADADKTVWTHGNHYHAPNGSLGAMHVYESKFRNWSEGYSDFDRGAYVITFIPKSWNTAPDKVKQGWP
- Assay Method Text: cell-based or functional assay
No end group written: not given here.
Parameter Log2(signal), array MTG labeling with N-(Biotinyl)cadaverine: see the listing below.

Take a look at these entries with their results.
binder="YFALQ (not fully specified) [YFALQ (SEQ ID NO: 15)]" data_value="15.3 Log2(signal)"
binder="DYALQ [DYALQ (SEQ ID NO: 1)]" data_value="15.5 Log2(signal)"

[in] What value of Log2(signal), array MTG labeling with N-(Biotinyl)cadaverine has been reported for the following binder? DYFLQ [DYFLQ (SEQ ID NO: 8)]
[out] 15.4 Log2(signal)

[in] Any idea what Log2(signal), array MTG labeling with N-(Biotinyl)cadaverine was measured for WYALQ (not fully specified) [WYALQ (SEQ ID NO: 17)] ?
[out] 15.3 Log2(signal)
